Give TGI for every item shown.
# System: SK-MEL-2 melanoma
# test.name: NCI tumour cell line growth inhibition, 48 h
Answers are plain numbers, in µM.

1) CC1=C(C(=O)OC(C)C)C(c2ccccc2C(F)(F)F)C(C(=O)OC(CO[N+](=O)[O-])CO[N+](=O)[O-])=C(C)N1 (stereo not given) :: 47.1

Next molecule, TGI to be filled in.
Q: State its TGI on SK-MEL-2 melanoma: `CC1=C(/C=C/C(C)=C/C=C/C(C)=C/CO)C(C)(C)CCC1`
Ans: 44

* * *

# System: DMS 273 small cell lung
# test.name: NCI tumour cell line growth inhibition, 48 h
Give TGI for every item shown.

1) COC(=O)c1ccc(NCc2cc(O)ccc2O)cc1 :: > 54.8 µM

Would you be so kind as to report TGI for each listed record?
1. O=C(/C=C1/Nc2ccc([N+](=O)[O-])cc2NC1O)c1cccc([N+](=O)[O-])c1 (configuration not stated)
2. O=S(=O)(C/C(=N\O)c1ccccc1)c1ccccc1

Ans:
> 100 µM
> 100 µM

* * *

# System: KM12 colon
# test.name: NCI tumour cell line growth inhibition, 48 h
Give TGI for every item shown.

Worked set:
1. COc1cc2c(c(OC3OC(CO)C(O)C(O)C3O)c1)C(=O)CC(c1ccc(O)cc1)O2 (stereo not given) :: > 100 µM
2. COc1cc(/C=C/C(=O)c2cccnc2Nc2ccc(F)cc2)cc(OC)c1OC :: 17.6 µM
3. O=C(Nc1ccn(CCI)c(=O)n1)c1ccccc1 :: > 100 µM
4. CC1OC(OC2C(Oc3cc(O)c4c(c3)O[C@H](c3ccc(O)cc3)CC4=O)OC(CO)C(O)C2O)C(O)C(O)C1O (stereo not given in full) :: > 100 µM

Q: Item CC(=O)OCC(Br)C1(C)CCC(C(C)(C)Br)O1 (stereo not given) has what recorded TGI?
Ans: > 100 µM

* * *

# Tested on: SR leukemia
# test.name: NCI tumour cell line growth inhibition, 48 h
result.type: TGI

1) c1ccc2c(c1)C1=NCCN1c1ccccc1-2 :: 2.41 µM

Would you be so kind as to report TGI for each listed record?
1. COc1cc(/C=C/C(=O)c2cccnc2Nc2ccc(F)cc2)cc(OC)c1OC
2. O=C(O)CCSC(=O)Nc1ccc(N=Nc2ccccc2)cc1
3. CC1(C)OC(=O)C=C([O-])O1.CC1(C)OC(=O)C=C([O-])O1.CC[O-].CC[O-].[Ti+4]
4. COc1ccc2c(c1OC)C(=O)c1cnccc1C2=O
5. COc1ccc(CCc2nccn2C)cc1OC

Ans:
8.36 µM
> 100 µM
> 100 µM
> 100 µM
> 100 µM

* * *

Give TGI for every item shown.
# System: SNB-19 CNS
# test.name: NCI tumour cell line growth inhibition, 48 h

1) O=C(CCN1CCOCC1)C(=Cc1ccccc1)C(=O)CCN1CCOCC1 :: 28.3 µM
2) NCCSCCc1ccccc1 :: > 100 µM
3) NC(=O)c1cccc([C@@H]2O[C@H](CO)[C@@H](O)[C@H]2O)c1 :: 34.3 µM
4) COc1ccc2nc(NC(=O)c3cccnc3Nc3cc(OC)c(OC)c(OC)c3)sc2c1 :: 31.7 µM

Would you be so kind as to report TGI for each listed record?
1. COC(=O)[C@@H](C)C[C@H](Cc1ccccc1)NC(=O)c1csc([C@@H](C[C@H](C(C)C)N(C)C(=O)[C@H](C)NC(=O)[C@H]2CCCCN2C)OC(C)=O)n1
2. COc1ccc(NC2CC(C)N(C(=O)c3ccccc3)O2)cc1 (stereo not given)
3. COc1ccc(N2C(=O)CC(c3c[nH]c4ncccc34)C2=O)cc1 (stereo not given)

Ans:
["> 25 µM", "> 10 µM", "> 100 µM"]

Would you be so kind as to report TGI for each listed record?
1. N#Cc1sc2c(c1O)c(=O)n(-c1ccccc1)c(=S)n2-c1ccccc1
2. O=[N+]([O-])c1ccc(S(=O)(=O)Cc2ccccc2)c2nonc12
3. NCc1cc(O)c(O)c(O)c1

Ans:
1. > 100 µM
2. > 100 µM
3. > 100 µM

Reference source: PubChem BioAssay (NCI)
